The measured values listed here are drawn from the supplement of paper PMC12494721.

# growth per entry
System: Klebsiella aerogenes DSM 30053
Assay: growth (OD595) fold change vs plate DMSO controls (fold change (ratio)); higher = more growth
Details: incubation time: 27 h, anaerobic, 37 °C
Counter-ions that a name gives are not always drawn.
Please respond with just the number, no unit label.

Consider the worked cases shown below.
COMPOUND: c1coc(CNc2ncnc3[nH]cnc23)c1 [Kinetin] (20 µM)
EXPERIMENTAL_READOUT: growth
OBSERVED: 0.962

COMPOUND: CCOc1ccc2ccccc2c1C(=O)N[C@@H]1C(=O)N2[C@@H]1SC(C)(C)[C@@H]2C(=O)O [Nafcillin sodium salt monohydrate] (20 µM)
EXPERIMENTAL_READOUT: growth
OBSERVED: 1.01

COMPOUND: Cc1c(C)c2c(c(C)c1O)CCC(C)(COc1ccc(CC3SC(=O)NC3=O)cc1)O2 (centres undefined) [Troglitazone] (20 µM)
EXPERIMENTAL_READOUT: growth
OBSERVED: 1.1

Now for the compound whose growth we want.
So for CCN(CC)CCOC(=O)C1(c2ccc([N+](=O)[O-])cc2)CCCC1 [Nitrocaramiphen hydrochloride] (20 µM) , the logged growth turned out to be 0.995

----------
System: Escherichia coli IAI1
Assay: fold change of Cadaverine concentration vs plate DMSO controls (fold change (ratio)); higher = more amine produced, active = hit call of the paper (significant change in both replicates, either direction)
Conditions: incubation time: 27 h, anaerobic, 37 °C
Where a name gives a salt, the structure may show the parent alone.
EXPERIMENTAL_READOUT: fold change of Cadaverine concentration
Please respond with just the number, no unit label.

COMPOUND: COc1ccc2c(c1)c(CC(=O)OCC(=O)O)c(C)n2C(=O)c1ccc(Cl)cc1 [Acemetacin] (20 µM)
OBSERVED: 0.959

COMPOUND: Cc1c(O)cccc1C(=O)N[C@@H](CSc1ccccc1)[C@H](O)CN1C[C@H]2CCCC[C@H]2C[C@H]1C(=O)NC(C)(C)C [Nelfinavir mesylate] (20 µM)
OBSERVED: 1.01

So for CC[C@@]1(O)C(=O)OCc2c1cc1n(c2=O)Cc2cc3c(CN(C)C)c(O)ccc3nc2-1 [Topotecan] (20 µM) , the logged fold change of Cadaverine concentration turned out to be 0.961

So for c1ccc2c(CC3=NCCN3)cccc2c1 [Naphazoline hydrochloride] (20 µM) , the logged fold change of Cadaverine concentration turned out to be 0.96

So for C=CCSCC1Nc2cc(Cl)c(S(N)(=O)=O)cc2S(=O)(=O)N1 (stereo unspecified) [Althiazide] (20 µM) , the logged fold change of Cadaverine concentration turned out to be 1.06

So for CC(=O)OCC(=O)[C@@]1(O)[C@H](C)C[C@H]2[C@@H]3CCC4=CC(=O)C=C[C@]4(C)[C@@]3(F)[C@@H](O)C[C@@]21C [Dexamethasone acetate] (20 µM) , the logged fold change of Cadaverine concentration turned out to be 1.02

So for Cc1cccc(N(C)C(=S)Oc2ccc3ccccc3c2)c1 [Tolnaftate] (20 µM) , the logged fold change of Cadaverine concentration turned out to be 1

So for CC(=O)/N=c1/sc(S(N)(=O)=O)nn1C [Methazolamide] (20 µM) , the logged fold change of Cadaverine concentration turned out to be 0.958

So for O=C(O)c1cn(C2CC2)c2cc(N3CCNCC3)c(F)cc2c1=O [Ciprofloxacin hydrochloride monohydrate] (20 µM) , the logged fold change of Cadaverine concentration turned out to be 0.176

So for CC(C)[N+](C)(CCOC(=O)C1c2ccccc2Oc2ccccc21)C(C)C [Propantheline bromide] (20 µM) , the logged fold change of Cadaverine concentration turned out to be 1.01

So for Oc1c(I)cc(Cl)c2cccnc12 [Clioquinol] (20 µM) , the logged fold change of Cadaverine concentration turned out to be 1.09

So for CN1CCC(=C2c3ccccc3CCc3sccc32)CC1 [Pizotifen malate] (20 µM) , the logged fold change of Cadaverine concentration turned out to be 1.04

So for COc1cc(C(=O)NC2CCCNC2)cc(OC)c1OC (stereo unspecified) [Troxipide] (20 µM) , the logged fold change of Cadaverine concentration turned out to be 0.978

So for COc1ccc(C2C(=O)c3ccccc3C2=O)cc1 [Anisindione] (20 µM) , the logged fold change of Cadaverine concentration turned out to be 0.994

So for NCCNCCNCCNCCN [Tetraethylenepentamine pentahydrochloride] (20 µM) , the logged fold change of Cadaverine concentration turned out to be 0.955

So for N#CC(c1ccc(Cl)cc1)c1c(Cl)cc(-n2ncc(=O)[nH]c2=O)cc1Cl (stereo unspecified) [Diclazuril] (20 µM) , the logged fold change of Cadaverine concentration turned out to be 0.99
